Item-by-item account of Fold KD Improvement
# ASSAYED_SYSTEM: T1, Recombinant human insulin receptor (B form) ECD (R&D Systems) (human, UniProt P06213 28-956, limits assumed)
# T1 construct: extracellular domain; also called INSR-ECD; h-INSR
# ASSAY_DETAILS: SPR (Biacore 2000), INSR-ECD immobilised; relative to 247.2.018 Fab
ENDPOINT_NAME: Fold KD Improvement (fold)

• RHF.15.05896.056 (Fab, V domains shown, Untagged Fab) VH: EVQLVETGGGVVQPGRSLRLSCAASGFKFSSYAMHWVRQAPGKGLEWVAVISYGGSNKYYADSVKGRFTISRDNSKNTLYLQMNSLRAEDTAVYYCARHEWGFGFDEWGQGTTVTVSS VL: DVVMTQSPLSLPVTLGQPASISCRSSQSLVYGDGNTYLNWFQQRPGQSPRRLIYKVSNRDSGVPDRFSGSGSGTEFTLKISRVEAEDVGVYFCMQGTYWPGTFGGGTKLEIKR = 6.9
• RHF.15.05896.075 (Fab, V domains shown, Untagged Fab) VH: EVQLVETGGGVVQPGRSLRLSCAASGFKFSSYAMHWVRQAPGKGLEWVAVISYSGSNKYYADSVKGRFTISRDNSKNTLYLQMNSLRAEDTAVYYCARHEWGFGYDYWGQGTTVTVSS VL: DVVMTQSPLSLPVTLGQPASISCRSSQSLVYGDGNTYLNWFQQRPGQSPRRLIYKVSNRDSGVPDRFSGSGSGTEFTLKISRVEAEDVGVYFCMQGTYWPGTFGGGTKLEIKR = 7
• RHF.15.05896.068 (Fab, V domains shown, Untagged Fab) VH: EVQLVETGGGVVQPGRSLRLSCAASGFKFSSYAMHWVRQAPGKGLEWVAVISYSGGNKYYADSVKGRFTISRDNSKNTLYLQMNSLRAEDTAVYYCARHEWGFGYDYWGQGTTVTVSS VL: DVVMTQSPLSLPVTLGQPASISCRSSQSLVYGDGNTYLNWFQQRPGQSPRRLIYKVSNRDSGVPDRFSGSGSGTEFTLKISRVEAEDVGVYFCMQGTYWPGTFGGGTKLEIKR = 8.3
• RHF.15.05896.020 (Fab, V domains shown, Untagged Fab) VH: EVQLVETGGGVVQPGRSLRLSCAASGFKFSSYAMHWVRQAPGKGLEWVAVISWSGSNKYYADSVKGRFTISRDNSKNTLYLQMNSLRAEDTAVYYCARHEWGFGFDEWGQGTTVTVSS VL: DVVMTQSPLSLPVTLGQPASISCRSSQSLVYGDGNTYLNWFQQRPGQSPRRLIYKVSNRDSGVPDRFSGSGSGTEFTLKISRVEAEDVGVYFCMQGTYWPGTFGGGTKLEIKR = 6.4
• RHF.15.05896.044 (Fab, V domains shown, Untagged Fab) VH: EVQLVETGGGVVQPGRSLRLSCAASGFKFSSYAMHWVRQAPGKGLEWVAVISNSGSNKYYADSVKGRFTISRDNSKNTLYLQMNSLRAEDTAVYYCARHEWGFGFDKWGQGTTVTVSS VL: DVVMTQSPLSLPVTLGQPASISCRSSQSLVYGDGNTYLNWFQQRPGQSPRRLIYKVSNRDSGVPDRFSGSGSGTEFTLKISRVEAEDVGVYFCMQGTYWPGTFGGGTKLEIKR = 7.4
